- test description: Volume of distribution in Sprague-Dawley rat at 2 mg/kg, iv by LC-MS analysis
- Assay type: ADME, organism-based
- Design: dose 2 mg/kg, route intravenous
- condition label: in vivo
quantity name: Vd (L/kg)
// units = L/kg; emit number, no label

Request: Look up Vd for this molecule: CCOC(=O)C1=C(NC(C)=O)Oc2cc(O)ccc2C1c1cccnc1 (stereo unspecified)
Result: 2.8

* * *

- test description: Ratio of drug level in brain to plasma in mouse at 5 mg/kg, iv after 5 mins
- Type: ADME, organism-based
- Parameters: dose 5 mg/kg, route intravenous
- condition label: read-out: BPR
quantity name: Kp at 5 min
Lab note: jot the number down without any unit.

Request: What measured Kp at 5 min goes with CCOC(=O)C1=C(NC(C)=O)Oc2cc(O)ccc2C1c1cccnc1 (stereo unspecified) ?
Result: 0.39
